I'd appreciate it if you could supply IC50 values for the items below.
testTarget: Pol theta (1-899) (Homo sapiens)
Construct: Pol theta (1-899) (5 nM) in assay buffer
procedureDetails: Pol theta ATPase activity, NADH oxidation-coupled enzymatic assay (ATPase NADH coupling: Standard Screening: hPolQ)
Assay type: biochemical
testConditions: Pol theta (1-899) 5 nM, NADH oxidation-coupled ATPase assay; compounds of Table 3

# compound, measuredValue
measured = [
    ("COc1cnc(Br)cc1-c1cc(C)ncc1C(=O)Nc1nnc(O[C@H]2CCC[C@@H](O)C2)s1 (single isomer, unassigned)", "≤ 200 nM"),
    ("COc1nnc(NC(=O)c2cnc(C)cc2-c2ccc3cn[nH]c3c2)s1", "1000 to 10000 nM"),
    ("COc1cnc(C)cc1-c1cc(C)ncc1C(=O)Nc1nnc(OC(CC(N)=O)C(F)(F)F)s1 (stereo not drawn)", "≤ 200 nM"),
]

Below are 8 compounds. Give each one its IC50.
1. COc1nnc(NC(=O)c2cnc(C)cc2-c2cccnc2)s1
2. COc1nnc(NC(=O)c2cnc(C)cc2-c2ccnc(C(F)(F)F)c2)s1
3. COc1cnc(Cl)cc1-c1cc(C)ncc1C(=O)Nc1nnc(O[C@H]2CC[C@@]23CCOC3)s1 (racemic)
4. COc1nnc(NC(=O)c2cnc(C)cc2-c2ccc(C)c(C)c2)s1
5. COc1nnc(NC(=O)c2cnc(C)cc2-c2cnc(C(F)(F)F)c(F)c2)s1
6. COc1nnc(NC(=O)c2cnc(C)cc2-c2cnc3[nH]ccc3c2)s1
7. COc1nnc(NC(=O)c2cnc(C)cc2-c2ccc(C(=O)O)c(F)c2)s1
8. COc1nnc(NC(=O)c2cnc(C)cc2-c2ccccc2C(C)C)s1

Result:
1000 to 10000 nM
500 to 1000 nM
≤ 200 nM
1000 to 10000 nM
1000 to 10000 nM
1000 to 10000 nM
1000 to 10000 nM
1000 to 10000 nM

* * *

I'd appreciate it if you could supply pIC50 values for the items below.
testTarget: Pol theta (1-899) (Homo sapiens)
Construct: Pol theta (1-899) (5 nM) in assay buffer
procedureDetails: Pol theta ATPase activity, NADH oxidation-coupled enzymatic assay (ATPase NADH coupling: Standard Screening: hPolQ)
Assay type: biochemical
testConditions: Pol theta (1-899) 5 nM, NADH oxidation-coupled ATPase assay; compounds of Table 3
pIC50: −log10 of the molar value.

For orientation, consider the following solved cases.
# chemicalString, pIC50
rows = [
    ("COc1nnc(NC(=O)c2cnc(C)cc2-c2cnc(C#N)nc2)s1", "5.00 to 6.00"),
    ("COc1nnc(NC(=O)c2cnc(C)cc2-c2cccc3[nH]ncc23)s1", "6.00 to 6.30"),
    ("COc1nnc(NC(=O)c2cnc(C)cc2-c2cc(C)cc(F)c2)s1", "6.30 to 6.70"),
]

Below are 2 molecules. Give each one its pIC50.
1. COc1nnc(NC(=O)c2cnc(C)cc2-c2cccc3ncccc23)s1
2. COc1nnc(NC(=O)c2cnc(C)cc2-c2cccs2)s1

Result:
1. 6.30 to 6.70
2. 5.00 to 6.00

* * *

I'd appreciate it if you could supply IC50 values for the items below.
testTarget: Pol theta (1-899) (Homo sapiens, UniProt O75417)
Construct: Pol theta (1-899) (5 nM) in assay buffer
Sequence (O75417 1-899): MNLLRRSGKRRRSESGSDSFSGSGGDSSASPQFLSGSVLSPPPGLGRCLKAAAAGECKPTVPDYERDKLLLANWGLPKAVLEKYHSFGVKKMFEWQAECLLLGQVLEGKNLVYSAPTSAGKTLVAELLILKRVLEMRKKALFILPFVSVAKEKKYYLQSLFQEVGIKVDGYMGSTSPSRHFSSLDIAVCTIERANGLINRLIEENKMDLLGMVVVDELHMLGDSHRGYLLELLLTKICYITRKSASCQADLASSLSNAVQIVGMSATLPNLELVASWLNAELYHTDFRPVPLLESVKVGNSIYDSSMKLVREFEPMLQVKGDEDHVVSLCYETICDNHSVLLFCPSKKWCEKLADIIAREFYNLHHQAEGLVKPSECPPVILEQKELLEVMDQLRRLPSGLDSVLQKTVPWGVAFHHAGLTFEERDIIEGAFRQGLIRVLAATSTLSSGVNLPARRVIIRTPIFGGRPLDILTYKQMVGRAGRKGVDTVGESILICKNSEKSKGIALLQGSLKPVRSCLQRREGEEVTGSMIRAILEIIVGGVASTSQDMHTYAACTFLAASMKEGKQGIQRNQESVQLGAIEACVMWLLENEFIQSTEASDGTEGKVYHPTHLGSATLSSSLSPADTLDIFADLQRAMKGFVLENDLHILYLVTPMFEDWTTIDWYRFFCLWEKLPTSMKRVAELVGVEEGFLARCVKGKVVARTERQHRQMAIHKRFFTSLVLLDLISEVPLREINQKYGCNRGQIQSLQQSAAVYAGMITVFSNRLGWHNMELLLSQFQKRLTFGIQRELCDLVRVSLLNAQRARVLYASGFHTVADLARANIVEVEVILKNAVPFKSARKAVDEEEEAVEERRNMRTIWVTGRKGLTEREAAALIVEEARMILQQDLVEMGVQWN
procedureDetails: Pol theta ATPase activity, NADH oxidation-coupled enzymatic assay (ATPase NADH coupling: Standard Screening: hPolQ)
Type: biochemical
testConditions: Pol theta (1-899) 5 nM, NADH oxidation-coupled ATPase assay; compounds of Table 3

# chemicalString, IC50
rows = [
    ("COc1nnc(NC(=O)c2cnc(C)cc2-c2cccc(OC)c2C#N)s1", "1 to 10 µM"),
    ("COc1nnc(NC(=O)c2cnc(C)cc2-c2ccc(F)cc2)s1", "1 to 10 µM"),
    ("COc1nnc(NC(=O)c2cc(N(C)C)ncc2-c2cc(Cl)ncc2OC)s1", "0.2 to 0.5 µM"),
    ("COc1nnc(NC(=O)c2cnc(C)cc2-c2ccc(C(N)=O)cc2)s1", "1 to 10 µM"),
    ("COc1nnc(NC(=O)c2cnc(C(F)F)cc2-c2cc(Cl)ncc2OC)s1", "≤ 0.2 µM"),
]

Below are 4 compounds. Give each one its IC50.
1. COc1nnc(NC(=O)c2cnc(C)cc2-c2ccc(C#N)nc2C)s1
2. COc1nnc(NC(=O)c2cnc(C)cc2-c2ccc(F)c(F)c2C)s1
3. COc1nnc(NC(=O)c2cnc(C)cc2-c2ccc(C#N)cc2)s1
4. COc1nnc(NC(=O)c2cc(OC(F)F)ncc2-c2cc(Cl)ncc2OC)s1

Result:
1 to 10 µM
0.5 to 1 µM
1 to 10 µM
≤ 0.2 µM
